Measured values drawn from the supplement of paper PMC12645437 for this set.

Some sequences, each annotated with its measured log2 fold change of degron read counts.
experimental_system: T1, CRBN, Q96SW2;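 further: pooled lentiviral library of zinc finger degron-EGFP fusions in mCherry-positive Jurkat cells, FACS-sorted after compound exposure, with degron abundance counted by next-generation sequencing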
T1 chain: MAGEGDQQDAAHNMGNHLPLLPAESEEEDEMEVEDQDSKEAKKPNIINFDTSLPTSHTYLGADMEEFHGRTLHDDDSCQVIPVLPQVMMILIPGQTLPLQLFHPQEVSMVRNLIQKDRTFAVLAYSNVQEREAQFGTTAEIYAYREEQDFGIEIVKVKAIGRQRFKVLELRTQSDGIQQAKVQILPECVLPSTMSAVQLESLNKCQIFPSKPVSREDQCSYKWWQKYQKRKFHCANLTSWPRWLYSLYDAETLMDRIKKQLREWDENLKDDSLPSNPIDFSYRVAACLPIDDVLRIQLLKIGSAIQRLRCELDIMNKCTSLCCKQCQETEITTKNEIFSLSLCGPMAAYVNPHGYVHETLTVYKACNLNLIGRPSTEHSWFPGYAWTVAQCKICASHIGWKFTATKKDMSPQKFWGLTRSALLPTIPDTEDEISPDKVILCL
method_notes: log2 fold change of degron read counts, EGFP-low vs EGFP+ sorted cells (limma voom), compound-induced degradation; higher = more compound-induced degradation of the degron-EGFP fusion; degrons are variants of IKZF1/3 zinc finger 2; compound dose not given here
condition_parameters: Jurkat; 18 h; compound: compound 22 (5-morpholino-thalidomide)
Whole data set: some 8,300 sequences, median “log2 fold change of degron read counts, EGFP-low vs EGFP+ sorted cells (limma voom), compound-induced degradation” near -1.1, cut for the highest 2% near 3.2. The sample as a whole holds a higher share of the highest values than the screen did.
Keep it simple and answer with nothing but the number.

INSERT INTO assay_data (biosequence, assay_metric, test_value) VALUES
  ('FKCNICGAKFTQKGNLLRHIKL [46F_47K_49N_50I_52G_53A_54K_55F_67L_, Q9UKT9]', 'log2 fold change of degron read counts', -3.54),
  ('LMCEICGFKCTQKGNLLRHIKL [46L_47M_49E_50I_52G_53F_54K_55C_67L_, Q9UKT9]', 'log2 fold change of degron read counts', -0.209),
  ('FKCDVCGADFTQKGNLLRHIKL [46F_47K_49D_50V_52G_53A_54D_55F_67L_, Q9UKT9]', 'log2 fold change of degron read counts', -3.35);

# ---- query sequence ----
Reported log2 fold change of degron read counts, sequence FDCPICGREFTQKGNLLRHIKL [46F_47D_49P_50I_52G_53R_54E_55F_67L_, Q9UKT9] : ____
-1.65
